# melting point annotations

smilesnotation=O=C1[C@H](CC[C@H](O)c2ccc(F)cc2)[C@@H](c2ccc(-c3ccccc3O)cc2)N1c1ccc(F)cc1 testresult="101 °C"
smilesnotation=CS(=O)(=O)c1ccc(-c2ccc([C@@H]3[C@@H](CC[C@H](O)c4ccc(F)cc4)C(=O)N3c3ccc(F)cc3)cc2)cc1 testresult="111 °C"

Please examine the following record next.
Query :: Quick one: melting point of O=C1[C@H](CC[C@H](O)c2ccc(F)cc2)[C@@H](c2ccc(O)c(-c3ccccc3)c2)N1c1ccc(F)cc1 ?
Result :: 113 °C

// data source = patent US7320972B2
